# assay: chemical genetic growth profiling, strain panel (AID 1159580);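 note: tested at 20 µM; growth read once vehicle control cultures reached saturation at 30 °C; 1 = growth at the plate median or of vehicle wells; lower values mean less growth of the strain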
# experimental.parameters: S. cerevisiae deletion strains, growth OD, locus YGR078C, strain PAC10, hits give low values
In all, about 5,500 compounds went through this assay and about 2,000 (36%) were called active. Inconclusive results (about 18%) are left out. The list shows a part of the results.
parameter: normalized growth

>  <compound>
CCCOc1ccc2nc(NC(=O)OC)[nH]c2c1

>  <parameter>
normalized growth

>  <observed>
0.856

$$$$
>  <compound>
CC(=O)N[C@@H](Cc1c[nH]c2ccccc12)C(N)=O

>  <parameter>
normalized growth

>  <observed>
0.97

$$$$
>  <compound>
CCC(C)C(=O)OC1[C@@H]2CC3=C4CC(=O)O[C@@H](c5ccoc5)[C@]4(C)CCC3[C@@](C)(C2=O)[C@@H](CC(=O)OC)C1(C)C (stereo not given in full)

>  <parameter>
normalized growth

>  <observed>
1.02

$$$$
>  <compound>
COC(=O)c1ccc(S(=O)(=O)N2CCC(C(N)=O)CC2)n1C

>  <parameter>
normalized growth

>  <observed>
0.989

$$$$
>  <compound>
NCCNS(=O)(=O)c1cccc2cnccc12

>  <parameter>
normalized growth

>  <observed>
0.968

$$$$
>  <compound>
CN(C)CCC(c1ccc(Cl)cc1)c1ccccn1 (stereo not given)

>  <parameter>
normalized growth

>  <observed>
1.01

$$$$
>  <compound>
COC(OC)c1cc(=O)[nH]c(=S)[nH]1

>  <parameter>
normalized growth

>  <observed>
1.03

$$$$
>  <compound>
CN[C@@H]1[C@H](O)[C@H](NC)[C@H]2O[C@@]3(O)C(=O)C[C@@H](C)O[C@H]3O[C@@H]2[C@H]1O

>  <parameter>
normalized growth

>  <observed>
1.02

$$$$
>  <compound>
CC(C)CCCC(C)[C@H]1CCC2C3CC=C4C[C@@H](O)CC[C@]4(C)C3CC[C@@]21C (stereo not given in full)

>  <parameter>
normalized growth

>  <observed>
1.01

$$$$
>  <compound>
N/C(=N/OC(=O)c1ccccc1)c1ccc(-c2csnn2)cc1

>  <parameter>
normalized growth

>  <observed>
1

$$$$
>  <compound>
COC(=O)/C(=C1\OC(=O)C(c2ccccc2)=C1O)c1ccccc1

>  <parameter>
normalized growth

>  <observed>
1.03

$$$$
>  <compound>
O=C(O)[C@@H]1C[C@@H](C(=O)O)N1

>  <parameter>
normalized growth

>  <observed>
1.01

$$$$
>  <compound>
Cc1cc(=O)[nH]c(=S)[nH]1

>  <parameter>
normalized growth

>  <observed>
1.02

$$$$
>  <compound>
CCOC(=O)c1ccc(NC(=O)CCC(=O)O)cc1

>  <parameter>
normalized growth

>  <observed>
0.99

$$$$
>  <compound>
CCOC(=O)[C@H](CCc1ccccc1)N[C@@H](C)C(=O)N1CCC[C@H]1C(=O)O

>  <parameter>
normalized growth

>  <observed>
1.02

$$$$
>  <compound>
CC(=O)OCC(=O)[C@@]1(O)[C@H](C)CC2C3CCC4=CC(=O)C=C[C@]4(C)[C@@]3(F)[C@@H](O)C[C@@]21C (stereo not given in full)

>  <parameter>
normalized growth

>  <observed>
1.01

$$$$
>  <compound>
CC(C)CCCC(C)C1CCC2C3C[C@@H](O)[C@@]4(O)C[C@@H](O)CC[C@]4(C)C3CC[C@]12C (stereo not given in full)

>  <parameter>
normalized growth

>  <observed>
1

$$$$
>  <compound>
O=P1(N(CCCl)CCCl)NCCCO1 (stereo not given)

>  <parameter>
normalized growth

>  <observed>
0.988

$$$$
>  <compound>
Cc1c(C)c2c(c(C)c1O)CCC(C)(CCCC(C)CCCC(C)CCCC(C)C)O2 (stereo not given)

>  <parameter>
normalized growth

>  <observed>
1

$$$$
>  <compound>
COCc1cc(=O)n2[nH]c(C(C)(C)C)cc2n1

>  <parameter>
normalized growth

>  <observed>
1.01

$$$$
